Consider the following compounds; for each one, report its IC50.
Molecular target: human GluN1/GluN2B NMDA receptors (Homo sapiens, UniProt Q13224)
Construct: expressed in transfected cells
Sequence (Q13224 27-1484, other chains not shown): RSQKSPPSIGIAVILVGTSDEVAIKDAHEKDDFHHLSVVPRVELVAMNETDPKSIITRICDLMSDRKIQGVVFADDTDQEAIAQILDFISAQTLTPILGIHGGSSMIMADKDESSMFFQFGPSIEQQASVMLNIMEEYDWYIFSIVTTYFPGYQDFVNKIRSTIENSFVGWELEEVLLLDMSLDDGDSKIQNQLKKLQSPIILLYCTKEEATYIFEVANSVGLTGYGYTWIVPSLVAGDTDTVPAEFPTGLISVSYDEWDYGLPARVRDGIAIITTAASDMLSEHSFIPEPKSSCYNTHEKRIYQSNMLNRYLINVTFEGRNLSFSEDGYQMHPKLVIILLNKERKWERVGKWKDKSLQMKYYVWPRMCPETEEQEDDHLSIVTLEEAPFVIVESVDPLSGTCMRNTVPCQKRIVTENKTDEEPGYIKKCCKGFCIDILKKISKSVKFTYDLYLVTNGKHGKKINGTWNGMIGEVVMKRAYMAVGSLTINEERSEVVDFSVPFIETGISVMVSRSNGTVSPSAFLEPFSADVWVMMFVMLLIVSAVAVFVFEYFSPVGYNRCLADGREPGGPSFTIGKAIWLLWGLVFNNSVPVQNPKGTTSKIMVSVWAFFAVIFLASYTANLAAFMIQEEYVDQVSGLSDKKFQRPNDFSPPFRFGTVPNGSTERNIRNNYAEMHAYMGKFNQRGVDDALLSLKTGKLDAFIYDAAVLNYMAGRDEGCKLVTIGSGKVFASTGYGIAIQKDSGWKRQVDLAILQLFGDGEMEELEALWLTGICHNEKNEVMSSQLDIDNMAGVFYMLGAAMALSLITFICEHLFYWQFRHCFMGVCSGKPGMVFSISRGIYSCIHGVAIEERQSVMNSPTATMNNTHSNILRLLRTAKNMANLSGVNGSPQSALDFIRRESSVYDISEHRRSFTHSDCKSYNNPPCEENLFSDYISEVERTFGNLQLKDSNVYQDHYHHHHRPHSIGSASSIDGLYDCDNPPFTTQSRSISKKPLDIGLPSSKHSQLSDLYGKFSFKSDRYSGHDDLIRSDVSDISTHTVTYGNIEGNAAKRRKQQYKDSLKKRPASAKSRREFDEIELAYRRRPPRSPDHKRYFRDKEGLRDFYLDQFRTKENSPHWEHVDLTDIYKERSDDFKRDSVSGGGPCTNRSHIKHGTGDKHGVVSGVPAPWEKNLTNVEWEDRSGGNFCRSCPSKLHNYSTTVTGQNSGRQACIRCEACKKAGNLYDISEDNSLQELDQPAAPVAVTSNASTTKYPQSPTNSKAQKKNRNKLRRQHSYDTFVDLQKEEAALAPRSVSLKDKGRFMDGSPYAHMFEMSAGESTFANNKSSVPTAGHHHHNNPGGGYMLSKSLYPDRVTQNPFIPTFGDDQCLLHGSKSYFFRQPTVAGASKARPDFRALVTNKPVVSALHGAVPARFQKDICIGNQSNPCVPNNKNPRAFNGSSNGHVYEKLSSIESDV
Assay: Calcium flux (FLIPR) assay on cloned human NR1/GluN2B ion channels expressed in mammalian cells (standard and HTS variants)
Type: cell-based
Conditions: cells expressing human GluN1/GluN2B, glutamate and glycine co-agonists
Counter-ions that a name gives are not always drawn.
Provide the reading as a plain figure in nM.

Just so you know, measured IC50 for Cc1nnc(Cn2nc(F)c3ncc(-c4ccc(Cl)c(C(F)F)c4)cc32)o1 came out at 347

Just so you know, measured IC50 for CCc1nnc(Cn2ncc3ncc(-c4ccc(F)c(C(F)F)c4)cc32)n1C came out at 3830

Just so you know, measured IC50 for Cc1cc(Cn2ncc3ncc(-c4ccc(F)c(C(F)F)c4)cc32)no1 came out at 18

Just so you know, measured IC50 for Fc1ccc(Cn2ncc3ncc(-c4cccc(C(F)(F)F)c4)cc32)cn1 came out at 234

Just so you know, measured IC50 for CC(F)(F)c1cc(-c2cnc3cnn(Cc4cncc(Cl)c4)c3c2)ccc1F came out at 64

Just so you know, measured IC50 for Fc1ccc(-c2cnc3cnn(Cc4cnccn4)c3c2)cc1OC(F)F came out at 320

Just so you know, measured IC50 for Cc1cnc(Cn2ncc3ncc(-c4ccc(F)c(OC(F)F)c4)cc32)o1 came out at 160

Just so you know, measured IC50 for CC(F)(F)c1cccc(-c2cnc3cnn(Cc4cncc(F)c4)c3c2)c1 came out at 40

Just so you know, measured IC50 for Cc1ccncc1Cn1ncc2ncc(-c3cc(F)cc(F)c3)cc21 [Example 184, trifluoroacetate salt] came out at 68

Just so you know, measured IC50 for FC(F)Oc1cc(-c2cnc3cnn(Cc4cncc(Cl)c4)c3c2)ccc1Cl came out at 146

Just so you know, measured IC50 for FC(F)Oc1cc(-c2cnc3cnn(Cc4cncnc4)c3c2)ccc1Cl came out at 90

Just so you know, measured IC50 for Fc1cncc(Cn2ncc3ncc(-c4cccc(OC(F)F)c4)cc32)c1 came out at 249

Just so you know, measured IC50 for Cc1cc(Cn2ncc3ncc(-c4ccc(F)c(C(C)(F)F)c4)cc32)no1 came out at 158

Just so you know, measured IC50 for FC(F)(F)c1cccc(-c2cnc3cnn(Cc4ncccn4)c3c2)c1 came out at 800

Just so you know, measured IC50 for COc1cncc(Cn2ncc3ncc(-c4ccc(F)c(C(C)(F)F)c4)cc32)c1 came out at 89

Just so you know, measured IC50 for COc1nccc(Cn2ncc3ncc(-c4ccc(F)c(C(F)F)c4)cc32)n1 came out at 320

Just so you know, measured IC50 for Cc1ccc(Cn2ncc3ncc(-c4ccc(F)c(OC(F)F)c4)cc32)nn1 came out at 626

Just so you know, measured IC50 for Cc1cc(-c2cnc3c(F)nn(Cc4cccnc4)c3c2)ccc1F came out at 26

Just so you know, measured IC50 for Cc1nc(Cn2ncc3ncc(-c4ccc(F)c(C(F)F)c4)cc32)no1 came out at 41

Just so you know, measured IC50 for Fc1ccc(Cn2ncc3ncc(-c4ccc(F)c(Br)c4)cc32)cn1 came out at 253

Just so you know, measured IC50 for Cc1cc(-c2cnc3cnn(Cc4cncc(F)c4)c3c2)ccc1F came out at 21

Just so you know, measured IC50 for Cc1cnc(Cn2ncc3ncc(-c4ccc(F)c(OC(F)F)c4)cc32)s1 came out at 104

Just so you know, measured IC50 for Cn1cnc(Cn2ncc3ncc(-c4ccc(F)c(C(F)F)c4)cc32)n1 came out at 383

Just so you know, measured IC50 for Cc1nnc(Cn2ncc3ncc(-c4ccc(F)c(C(C)(F)F)c4)cc32)o1 came out at 244

The measurements presented in this section are drawn from patent US11530210B2.
